target: T1, pm6 (Y16 and Y17 sulfated; Y15 not sulfated); assay: ELISA on coated peptide [cont.]
T1 construct: also called sulfated CCR8 N-terminal peptide pm6
T1 sequence (peptide, as listed by the source): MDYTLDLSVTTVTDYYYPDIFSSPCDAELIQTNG
READOUT: binding result

>  <BINDER>
anti-CCR8 mAb 1-4 (antibody, V domains shown, Murine hybridoma mAb) VH: EVQLVESGGGLVQPTGSLRLSCAASGFTFNAYAMNWVRQAPGKGLEWVARIRSKSNDYATYYGDSVKDRFTISRDDSQSMLYLQMNNLKTEDTAMYYCVRGREAYYRYDGGYYAMDYWGQGTSVTVSS VL: DIVMTQAAPSVSVTPGESVSISCTSSKSLLHSNGNTYLYWFLQRPGQSPQLLIYRMSNLASGVPDRFSGSGSGTAFTLRISRVEAEDVGVYYCMQHREYPFTFGSGTKLEIK

>  <READOUT>
binding result

>  <READOUT_VALUE>
binds

$$$$
>  <BINDER>
anti-CCR8 mAb 1-1 (antibody, V domains shown, Murine hybridoma mAb) VH: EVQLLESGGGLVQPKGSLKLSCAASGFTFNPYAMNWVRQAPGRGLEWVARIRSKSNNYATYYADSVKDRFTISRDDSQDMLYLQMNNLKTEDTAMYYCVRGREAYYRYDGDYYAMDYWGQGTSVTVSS VL: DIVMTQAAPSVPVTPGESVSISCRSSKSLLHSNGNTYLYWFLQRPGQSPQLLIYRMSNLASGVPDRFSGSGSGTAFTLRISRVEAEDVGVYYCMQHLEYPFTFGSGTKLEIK

>  <READOUT>
binding result

>  <READOUT_VALUE>
binds

$$$$
>  <BINDER>
anti-CCR8 mAb 1-23 (antibody, human IgG1, kappa, V domains shown, Humanized mAb, human IgG1 / kappa) VH: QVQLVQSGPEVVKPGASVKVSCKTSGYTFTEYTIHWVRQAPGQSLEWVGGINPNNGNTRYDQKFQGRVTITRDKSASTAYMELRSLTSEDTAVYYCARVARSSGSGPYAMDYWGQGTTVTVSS VL: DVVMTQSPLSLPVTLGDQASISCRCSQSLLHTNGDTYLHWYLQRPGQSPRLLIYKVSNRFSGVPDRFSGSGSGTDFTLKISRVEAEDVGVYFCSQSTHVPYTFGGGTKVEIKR

>  <READOUT>
binding result

>  <READOUT_VALUE>
binds

$$$$
